Biological target: UniProt P51449
Test: RGA Assay: nuclear receptor transactivation assay, RORγt transactivation of a luciferase reporter
Conditions: transiently transfected HEK 293 cells, Gal4DBD hRORC LBD, 20-24 hours incubation
Protocol: A nuclear receptor transactivation assay was performed to quantitate the ability of test compounds to inhibit RORγt transactivation of a luciferase reporter. A similar assay is described in: Khan et al., Bioorganic & Medicinal Chemistry Letters 23 (2013), 532-536. The system uses transiently transfected HEK 293 cells cotransfected with two plasmids (pGL4.3, luc2P/GAL4UAS/Hygro, and pBIND, Gal4DBD hRORC LBD1-3). […] The plates were read on an Envision plate reader to measure luminescence signal. […]
assay-endpoint: pIC50
Keep in mind that pIC50 stands for -log10 of concentration in molar terms.

Form entry - test system: UniProt P51449; read-out: pIC50; compound: CNS(=O)(=O)c1ccc(CNC(=O)N2CC3(CCCC3)c3cc(-c4c(C)cc(CO)cc4C)ccc32)cc1 [Example 89]
6.00

Form entry - test system: UniProt P51449; read-out: pIC50; compound: CNS(=O)(=O)c1ccc(CNC(=O)N2CC3(CCCC3)c3cc(-c4cccc(C#N)c4C)ccc32)cc1 [Example 38]
6.01

Form entry - test system: UniProt P51449; read-out: pIC50; compound: CCS(=O)(=O)c1ccc(CNC(=O)N2CC(C)(C3CCC3)c3cc(-c4cncnc4C(C)C)ccc32)cc1 (stereo not shown) [Example 116]
6.00

Form entry - test system: UniProt P51449; read-out: pIC50; compound: CNS(=O)(=O)c1ccc(CNC(=O)N2CC3(CCCC3)c3cc(-c4ccc(C)cc4C#N)ccc32)cc1 [Example 39]
6.00

---

Reported IC50 is given for each of the following molecules.
biological target: RORγt (hRORC LBD) (Homo sapiens); construct: expressed in transfected cells; host or cells: HEK 293 (transient cotransfection with pGL4.3 luc2P/GAL4UAS/Hygro reporter); test: RGA Assay: nuclear receptor transactivation assay, RORγt transactivation of a luciferase reporter; type: cell-based; settings: transiently transfected HEK 293 cells, Gal4DBD hRORC LBD, 20-24 hours incubation
Sequence (P51449 269-508 limits assumed): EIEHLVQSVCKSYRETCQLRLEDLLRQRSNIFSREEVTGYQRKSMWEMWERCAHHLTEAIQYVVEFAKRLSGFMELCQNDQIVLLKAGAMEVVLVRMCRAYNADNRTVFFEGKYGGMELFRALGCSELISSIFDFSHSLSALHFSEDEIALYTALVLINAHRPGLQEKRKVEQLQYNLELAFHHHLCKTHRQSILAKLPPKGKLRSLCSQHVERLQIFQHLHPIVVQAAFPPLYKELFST
Record the value in nM, omitting the unit from your answer.

Before answering, review these 5 worked examples.
CNS(=O)(=O)c1ccc(CNC(=O)N2CC3(CCCC3)c3cc(-c4ccccc4-c4cnco4)ccc32)cc1 [Example 33]
750
CNS(=O)(=O)c1ccc(CNC(=O)N2CC3(CCCC3)c3cc(-c4ccc5[nH]ncc5c4C)ccc32)cc1 [Example 48]
1600
CNc1ccc(-c2ccc3c(c2)C2(CCCC2)CN3C(=O)NCc2ccc(S(=O)(=O)NC)cc2)c(C)c1 [Example 44]
1100
CNS(=O)(=O)c1ccc(CNC(=O)N2CC(C)(CC(C)C)c3cc(-c4ccc(F)cc4C)ccc32)cc1 (stereo not shown) [Example 59]
1500
CNS(=O)(=O)c1ccc(CNC(=O)N2CC3(CCCC3)c3cc(-c4cccc(F)c4CC#N)ccc32)cc1 [Example 43]
1100

Value lookup for IC50; key = CNS(=O)(=O)c1ccc(CNC(=O)N2CC3(CCCC3)c3cc(-c4ccc(F)cc4C(=O)OC)ccc32)cc1 [Example 85]
1300

Value lookup for IC50; key = CCS(=O)(=O)c1ccc(CNC(=O)N2CC3(CCCC3)c3cc(-c4ccc(C)cc4C#N)ccc32)cc1 [Example 70]
1300

Value lookup for IC50; key = CCS(=O)(=O)c1ccc(CNC(=O)N2CC3(CCCC3)c3cc(-c4cnc(N)nc4C(F)(F)F)ccc32)cc1 [Example 111]
1700

---

Molecular target: UniProt P51449
Experiment: RGA Assay: nuclear receptor transactivation assay, RORγt transactivation of a luciferase reporter
Details: transiently transfected HEK 293 cells, Gal4DBD hRORC LBD, 20-24 hours incubation
Protocol: A nuclear receptor transactivation assay was performed to quantitate the ability of test compounds to inhibit RORγt transactivation of a luciferase reporter. A similar assay is described in: Khan et al., Bioorganic & Medicinal Chemistry Letters 23 (2013), 532-536. The system uses transiently transfected HEK 293 cells cotransfected with two plasmids (pGL4.3, luc2P/GAL4UAS/Hygro, and pBIND, Gal4DBD hRORC LBD1-3). […] The plates were read on an Envision plate reader to measure luminescence signal. […]
assay-endpoint: IC50 (nM)
Record the value in nM, omitting the unit from your answer.

CN(C)c1ncc(-c2ccc3c(c2)C2(CCCC2)CN3C(=O)NCc2ccc(S(C)(=O)=O)cc2)c(C(F)(F)F)n1 [Example 106]
650

Form entry - test system: UniProt P51449; read-out: IC50; compound: CNS(=O)(=O)c1ccc(CNC(=O)N2CC3(CCCC3)c3cc(-c4ccc(C#N)cc4C)ccc32)cc1 [Example 15]
940

Form entry - test system: UniProt P51449; read-out: IC50; compound: CNS(=O)(=O)c1ccc(CNC(=O)N2CC3(CCCC3)c3cc(-c4ccc(OC)cc4C(F)(F)F)ccc32)cc1 [Example 6]
310

Form entry - test system: UniProt P51449; read-out: IC50; compound: COc1ccc(-c2ccc3c(c2)C2(CCCC2)CN3C(=O)NCc2ccc(C#N)cc2)c(C(F)(F)F)c1 [Example 82]
1100

Form entry - test system: UniProt P51449; read-out: IC50; compound: CNS(=O)(=O)c1ccc(CNC(=O)N2CC3(CCCC3)c3cc(-c4cc(CN)ccc4C)ccc32)cc1 [Example 98]
1200

Form entry - test system: UniProt P51449; read-out: IC50; compound: CCS(=O)(=O)c1ccc(CNC(=O)N2CC3(CCCC3)c3cc(-c4ccccc4-c4cnco4)ccc32)cc1 [Example 78]
790

Form entry - test system: UniProt P51449; read-out: IC50; compound: CNS(=O)(=O)c1ccc(CNC(=O)N2CC3(CCCC3)c3cc(-c4ccccc4C(C)=O)ccc32)cc1 [Example 27]
1700

---

biological target: RORγt (hRORC LBD) (Homo sapiens); assay: RGA Assay: nuclear receptor transactivation assay, RORγt transactivation of a luciferase reporter; conditions: transiently transfected HEK 293 cells, Gal4DBD hRORC LBD, 20-24 hours incubation
Reported pIC50 is given for each of the following molecules.
Keep in mind that pIC50 stands for -log10 of concentration in molar terms.

CCOC(=O)c1ccc(F)cc1-c1ccc2c(c1)C1(CCCC1)CN2C(=O)NCc1ccc(S(=O)(=O)NC)cc1
6.01
CNS(=O)(=O)c1ccc(CNC(=O)N2CC3(CCCC3)c3cc(Oc4cc(C(F)(F)F)ccc4C)ccc32)cc1
6.60

Form entry - test system: RORγt (hRORC LBD) (Homo sapiens); read-out: pIC50; molecule: CNS(=O)(=O)c1ccc(CNC(=O)N2CC3(CCCC3)c3cc(-c4ccccc4C(F)F)ccc32)cc1
6.13

Form entry - test system: RORγt (hRORC LBD) (Homo sapiens); read-out: pIC50; molecule: CNS(=O)(=O)c1ccc(CNC(=O)N2CC3(CCCC3)c3cc(-c4ccccc4CC#N)ccc32)cc1
5.92

Form entry - test system: RORγt (hRORC LBD) (Homo sapiens); read-out: pIC50; molecule: CNS(=O)(=O)c1ccc(CNC(=O)N2CC3(CCCC3)c3cc(-c4cccc5cccnc45)ccc32)cc1
5.82
